Values compiled from patent US4698332A.

# Measurement Description: Acute toxicity test of N-acetylneuraminic acid, rats (Example 6)
# Assay type: in vivo, SD rats
# Condition: rat, in vivo, iv; rats M; 95% 1748-2001
Endpoint: LD50 at 336 h (mg/kg)
Only the number, expressed in mg/kg, is required.

Value lookup for LD50 at 336 h; key = CC(=O)N[C@H]1[C@H]([C@H](O)[C@H](O)CO)OC(O)(C(=O)O)C[C@@H]1O (stereo partly shown) [N-acetylneuraminic acid] 1870

* * *

# Measurement Description: Acute toxicity test of N-acetylneuraminic acid, rats (Example 6)
# Assay type: in vivo, SD rats
# Condition: rat, in vivo, po, per os; rats M
Endpoint: LD50 at 336 h

Could you tell me which LD50 at 336 h is on file for CC(=O)N[C@H]1[C@H]([C@H](O)[C@H](O)CO)OC(O)(C(=O)O)C[C@@H]1O (stereo partly shown) ? > 5000 mg/kg

* * *

# Measurement Description: Acute toxicity test of sodium salt of N-acetylneuraminic acid, rat (Example 11)
# Type: in vivo, SD rats
# Condition: in vivo, sc, subcutaneous injection, first line (sex not given)
Where a name gives a salt, the structure may show the parent alone.
Endpoint: LD50 at 336 h

Form field: reported LD50 at 336 h of CC(=O)N[C@H]1[C@H]([C@H](O)[C@H](O)CO)OC(O)(C(=O)O)C[C@@H]1O (stereo partly shown) [sodium salt of N-acetylneuraminic acid] > 5000 mg/kg
